ASSAY NOTES: Pharmacokinetics in Sprague Dawley rats
Format: in vivo
EXPERIMENTAL SETUP: Sprague Dawley, rat, plasma, iv, 1 mg/kg
QUANTITY NAME: AUC (µM·h)
Write down the numeric answer in µM·h and omit the unit.

Query: Looking for the measured AUC of CCOc1ccc(-c2nc(-c3cccc4c3CCC4NCCO)no2)cc1OCC (stereo not shown) [CYM-5442] , can you help?
Result: 0.57

----------
ASSAY NOTES: Pharmacokinetics in Sprague Dawley rats
Type: in vivo
EXPERIMENTAL SETUP: Sprague Dawley, rat, plasma, po, 2 mg/kg, t1/2, rat, 2 mg/kg PO
QUANTITY NAME: half-life
I'd appreciate it if you wrote the number followed by its unit.

Query: half-life; subject: CCOc1ccc(-c2nc(-c3cccc4c3CCC4NCCO)no2)cc1OCC (stereo not shown)
Result: 4 h

----------
ASSAYED TARGET: S1P1 R^120A mutant (Homo sapiens, UniProt P21453, R120A)
Sequence (P21453 whole entry R120A): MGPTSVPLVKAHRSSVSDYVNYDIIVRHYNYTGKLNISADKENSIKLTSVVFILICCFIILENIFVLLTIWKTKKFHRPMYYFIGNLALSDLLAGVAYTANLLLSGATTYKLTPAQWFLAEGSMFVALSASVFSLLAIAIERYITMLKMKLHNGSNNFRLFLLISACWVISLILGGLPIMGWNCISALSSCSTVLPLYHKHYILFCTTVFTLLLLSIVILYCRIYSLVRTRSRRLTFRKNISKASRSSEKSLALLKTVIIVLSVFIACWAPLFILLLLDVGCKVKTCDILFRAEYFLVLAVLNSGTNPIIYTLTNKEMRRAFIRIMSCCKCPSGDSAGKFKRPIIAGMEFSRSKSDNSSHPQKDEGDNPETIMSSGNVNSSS
Format: cell-based
EXPERIMENTAL SETUP: EC50, p42/p44 MAPK activity, R^120A, without W146
QUANTITY NAME: EC50 (nM)
The reply should contain only the number, in nM.

Query: Which EC50 is listed for CCOc1ccc(-c2nc(-c3cccc4c3CCC4NCCO)no2)cc1OCC (stereo not shown) ?
Result: 67

----------
ASSAYED TARGET: human wild-type S1P1 (WT) (Homo sapiens, UniProt P21453)
Sequence (P21453 whole entry): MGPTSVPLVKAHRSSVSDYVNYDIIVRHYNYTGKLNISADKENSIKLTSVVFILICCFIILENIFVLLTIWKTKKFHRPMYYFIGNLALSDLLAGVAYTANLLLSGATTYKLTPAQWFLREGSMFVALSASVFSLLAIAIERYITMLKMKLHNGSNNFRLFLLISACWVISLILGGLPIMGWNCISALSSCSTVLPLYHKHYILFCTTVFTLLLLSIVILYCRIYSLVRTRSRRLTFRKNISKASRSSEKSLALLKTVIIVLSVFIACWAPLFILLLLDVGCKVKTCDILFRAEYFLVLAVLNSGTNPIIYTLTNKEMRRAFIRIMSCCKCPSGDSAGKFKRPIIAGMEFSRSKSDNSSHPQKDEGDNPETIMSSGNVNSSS
Assay type: cell-based
EXPERIMENTAL SETUP: EC50, activation of p42/p44 MAPK phosphorylation, WT, 10 μM W146 prior to agonist
QUANTITY NAME: pEC50
Value format note: pEC50 is -log10 of concentration (mol/L); just state the number.

Query: May I ask what pEC50 has been recorded for CCCCCCCCCCCCC/C=C/[C@@H](O)[C@@H](N)COP(=O)(O)O [S1P, Sphingosine-1 phosphate] ?
Result: 6.85

----------
ASSAY NOTES: Pharmacokinetics in Sprague Dawley rats
Type: in vivo
EXPERIMENTAL SETUP: Sprague Dawley, rat, plasma, oral, 2 mg/kg
QUANTITY NAME: bioavailability

Query: Which measured bioavailability value corresponds to CCOc1ccc(-c2nc(-c3cccc4c3CCC4NCCO)no2)cc1OCC (stereo not shown) ?
Result: 20.5%

----------
ASSAYED TARGET: S1P1 E^121A mutant (Homo sapiens, UniProt P21453, E121A)
Assay type: cell-based
EXPERIMENTAL SETUP: LogEC50, E^121A, without W146; log EC50 printed negative
QUANTITY NAME: pEC50
Please express pEC50 as -log10 of the molar concentration.

Query: Record CCOc1ccc(-c2nc(-c3cccc4c3CCC4NCCO)no2)cc1OCC (stereo not shown) : what is its pEC50 with S1P1 E^121A mutant (Homo sapiens, UniProt P21453, E121A)?
Result: 6.90

----------
ASSAY NOTES: Pharmacokinetics in Sprague Dawley rats
Format: in vivo
EXPERIMENTAL SETUP: Sprague Dawley, rat, plasma, iv, 1 mg/kg
QUANTITY NAME: MRT (h)
Provide the reading as a plain figure in h.

Query: Reported MRT, compound CCOc1ccc(-c2nc(-c3cccc4c3CCC4NCCO)no2)cc1OCC (stereo not shown) : ____
Result: 3.54

----------
ASSAY NOTES: Pharmacokinetics in Sprague Dawley rats
Assay type: in vivo
EXPERIMENTAL SETUP: Sprague Dawley, rat, plasma, po, 2 mg/kg
QUANTITY NAME: Tmax (h)
Write the answer as a number in h, unit excluded.

Query: Need Tmax, item CCOc1ccc(-c2nc(-c3cccc4c3CCC4NCCO)no2)cc1OCC (stereo not shown)
Result: 1.17

----------
ASSAY NOTES: Brain exposure in C57Bl6 mice
Assay type: in vivo
EXPERIMENTAL SETUP: C57Bl6, mouse, brain, ip, 10 mg/kg
QUANTITY NAME: concentration at 2 h (µM)
Express it in µM; write the number only.

Query: So what does the record say about concentration at 2 h for CCOc1ccc(-c2nc(-c3cccc4c3CCC4NCCO)no2)cc1OCC (stereo not shown) [CYM-5442] ?
Result: 13.7

----------
ASSAY NOTES: Pharmacokinetics in Sprague Dawley rats
Type: in vivo
EXPERIMENTAL SETUP: Sprague Dawley, rat, plasma, po, 2 mg/kg, half-life (t1/2), P.O.
QUANTITY NAME: half-life (h)
Enter your answer as a number in h; do not include the unit.

Query: // query half-life value for entry CCOc1ccc(-c2nc(-c3cccc4c3CCC4NCCO)no2)cc1OCC (stereo not shown)
Result: 3

----------
ASSAYED TARGET: UniProtKB P21453
QUANTITY NAME: EC50 (nM)
Lab book: enter the figure in nM, no units written.

Query: # get_value(readout= EC50, system= UniProtKB P21453) for CCOc1ccc(-c2nc(-c3cccc4c3CCC4NCCO)no2)cc1OCC (stereo not shown)
Result: 1.35

----------
ASSAY NOTES: Pharmacokinetics in Sprague Dawley rats
Format: in vivo
EXPERIMENTAL SETUP: Sprague Dawley, rat, plasma, iv, 1 mg/kg
QUANTITY NAME: Cmax (nM)
Dear colleague, please return just the value in nM, with no unit written.

Query: State the recorded Cmax for this entry: CCOc1ccc(-c2nc(-c3cccc4c3CCC4NCCO)no2)cc1OCC (stereo not shown) [CYM-5442]
Result: 220

----------
ASSAY NOTES: Brain exposure in C57Bl6 mice
Assay type: in vivo
EXPERIMENTAL SETUP: C57Bl6, mouse, plasma, ip, 10 mg/kg
QUANTITY NAME: concentration at 2 h (nM)
Respond with the bare value in nM.

Query: Field request: concentration at 2 h | item: CCOc1ccc(-c2nc(-c3cccc4c3CCC4NCCO)no2)cc1OCC (stereo not shown)
Result: 1080
